Below, each of the compounds is paired with its reported inhibition in vivo at 50 mg/kg value.
system: Rattus norvegicus; experiment: Inhibition of adjuvant induced swelling of rat right hind paw by 50 mg/kg p.o. administration.; format: functional; conditions: route oral
EXPERIMENTAL READOUT: inhibition in vivo at 50 mg/kg (%)

[
  {
    "COMPOUND": "CCOC(=O)c1c(CSc2nccn2C)nc2ccccc2c1-c1ccc(OC)c(OC)c1",
    "EXPERIMENTAL READOUT": "inhibition in vivo at 50 mg/kg",
    "VALUE PREFIX": "=",
    "EXPERIMENTAL RESULT": 33
  },
  {
    "COMPOUND": "COc1ccc(-c2nc(CSc3nccn3C)nc3cc(OC)c(OC)cc23)cc1OC",
    "EXPERIMENTAL READOUT": "inhibition in vivo at 50 mg/kg",
    "VALUE PREFIX": "<",
    "EXPERIMENTAL RESULT": 50
  },
  {
    "COMPOUND": "COc1cc2c(OC)c3c(c(-c4ccc5c(c4)OCO5)c2cc1OC)C(=O)OC3 [JUSTICIDIN A]",
    "EXPERIMENTAL READOUT": "inhibition in vivo at 50 mg/kg",
    "VALUE PREFIX": "=",
    "EXPERIMENTAL RESULT": 10
  },
  {
    "COMPOUND": "CCOC(=O)c1c(CSc2nccn2C)nc2cc(OC)c(OC)cc2c1-c1ccc(OC)cc1",
    "EXPERIMENTAL READOUT": "inhibition in vivo at 50 mg/kg",
    "VALUE PREFIX": "=",
    "EXPERIMENTAL RESULT": 64
  },
  {
    "COMPOUND": "CCOC(=O)c1c(CSc2nccn2C)nc2cc(OC)c(OC)cc2c1-c1ccccc1",
    "EXPERIMENTAL READOUT": "inhibition in vivo at 50 mg/kg",
    "VALUE PREFIX": "=",
    "EXPERIMENTAL RESULT": 31
  }
]
